- Tested system: human M4 receptor (Homo sapiens, UniProt P08173)
- Construct: expressed in transfected cells
- Sequence (P08173 whole entry): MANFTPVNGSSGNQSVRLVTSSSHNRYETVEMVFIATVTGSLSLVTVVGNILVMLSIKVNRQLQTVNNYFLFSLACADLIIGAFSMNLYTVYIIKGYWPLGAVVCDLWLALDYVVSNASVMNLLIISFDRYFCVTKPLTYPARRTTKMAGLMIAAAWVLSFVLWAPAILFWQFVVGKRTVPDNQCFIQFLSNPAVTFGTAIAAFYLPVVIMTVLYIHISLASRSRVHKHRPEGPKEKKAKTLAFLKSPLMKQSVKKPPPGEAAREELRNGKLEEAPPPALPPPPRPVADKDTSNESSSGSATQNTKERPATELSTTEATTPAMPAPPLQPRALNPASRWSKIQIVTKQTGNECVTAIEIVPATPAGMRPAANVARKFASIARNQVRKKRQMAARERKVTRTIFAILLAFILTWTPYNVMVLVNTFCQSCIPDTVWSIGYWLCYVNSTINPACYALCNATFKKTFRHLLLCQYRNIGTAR
- Measurement notes: SPA GTP (GTPgS) binding curve shift assay, M4
- Format: biochemical
- Protocol conditions: MK-4710 concentration 370 nM
Attribute measured: Emax at […] (%)

INSERT INTO measurements (compound, attribute_measured, unit_name, numeric_readout) VALUES
  ('CCCCCCCOc1nsnc1C1=CCCCN1C', 'Emax at […]', '%', 59.7),
  ('CCCCCCOc1nsnc1C1=CCCN(C)C1 [xanomeline, reference compound]', 'Emax at […]', '%', 55),
  ('CCCCCOc1nsnc1C1=CCCCN1C', 'Emax at […]', '%', 53.4),
  ('CC1OC2(CS1)CN1CCC2CC1 (stereo not shown) [cevimeline, Cevimeline, reference compound]', 'Emax at […]', '%', 42.1);

====

- Tested system: human M3 receptor (Homo sapiens, UniProt P20309)
- Construct: expressed in transfected cells
- Sequence (P20309 whole entry): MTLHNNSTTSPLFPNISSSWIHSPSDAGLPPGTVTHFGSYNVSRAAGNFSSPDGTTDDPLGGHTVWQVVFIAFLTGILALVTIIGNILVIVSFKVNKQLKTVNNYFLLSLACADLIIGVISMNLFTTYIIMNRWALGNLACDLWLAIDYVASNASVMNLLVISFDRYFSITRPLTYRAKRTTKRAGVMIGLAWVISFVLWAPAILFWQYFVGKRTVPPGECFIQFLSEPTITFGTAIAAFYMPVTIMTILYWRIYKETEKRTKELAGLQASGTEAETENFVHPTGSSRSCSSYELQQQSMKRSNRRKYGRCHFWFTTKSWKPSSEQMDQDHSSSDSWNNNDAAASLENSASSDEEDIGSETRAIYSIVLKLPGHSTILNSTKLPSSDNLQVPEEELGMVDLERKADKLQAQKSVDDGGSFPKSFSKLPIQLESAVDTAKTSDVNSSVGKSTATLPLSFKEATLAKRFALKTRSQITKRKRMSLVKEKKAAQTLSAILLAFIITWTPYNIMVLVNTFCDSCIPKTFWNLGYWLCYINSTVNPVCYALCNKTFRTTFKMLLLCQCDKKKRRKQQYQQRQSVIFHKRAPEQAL
- Measurement notes: HTRF IP-One curve shift assay, M3
- Type: cell-based
- Protocol conditions: Emraclidine concentration 0 nM
Attribute measured: EC50 (nM)

INSERT INTO assay_data (compound, tested_system, numeric_readout) VALUES
  ('CCCCCCOc1nsnc1C1=CCCN(C)C1 [xanomeline, reference compound]', 'human M3 receptor (Homo sapiens, UniProt P20309)', 155);

P = CCCCCCCOc1nsnc1C1=CCCCN1C
Q = CCCCCOc1nsnc1C1=CCCCN1C
R = CC1OC2(CS1)CN1CCC2CC1 (stereo not shown) [cevimeline, Cevimeline, reference compound]
# rank by EC50, ascending (min first) In plain terms: list the labels in the order you were asked to. Q, P, R
(Q: 24.4 nM, P: 224 nM, R: 3270 nM)

====

- Tested system: human M5 receptor (Homo sapiens)
- Construct: expressed in transfected cells
- Sequence (P08912 1-532): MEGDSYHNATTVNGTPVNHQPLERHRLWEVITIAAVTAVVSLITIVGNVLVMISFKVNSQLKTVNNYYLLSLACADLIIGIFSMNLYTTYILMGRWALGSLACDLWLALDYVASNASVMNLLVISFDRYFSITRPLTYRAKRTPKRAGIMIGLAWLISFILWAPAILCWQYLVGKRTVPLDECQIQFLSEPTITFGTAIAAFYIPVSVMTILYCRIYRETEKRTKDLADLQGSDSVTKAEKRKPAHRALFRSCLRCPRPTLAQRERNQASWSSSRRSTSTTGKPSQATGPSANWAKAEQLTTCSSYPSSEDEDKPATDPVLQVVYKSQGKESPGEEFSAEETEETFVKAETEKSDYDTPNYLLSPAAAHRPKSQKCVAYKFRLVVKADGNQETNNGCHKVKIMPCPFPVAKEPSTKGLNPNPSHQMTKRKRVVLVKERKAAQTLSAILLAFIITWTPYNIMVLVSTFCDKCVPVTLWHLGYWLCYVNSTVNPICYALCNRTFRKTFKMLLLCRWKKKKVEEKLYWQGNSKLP
- Measurement notes: HTRF IP-One curve shift assay, M5
- Assay type: cell-based
- Protocol conditions: M5; Emraclidine concentration 3330 nM; read-out: Emax
Attribute measured: Emax (%)

Sample records with Emax:
INSERT INTO results (molecule, unit_name, numeric_readout) VALUES
  ('CCCCCCOc1nsnc1C1=CCCN(C)C1 [xanomeline, reference compound]', '%', 79.5),
  ('CCCCCCCOc1nsnc1C1=CCCCN1C [KTX-593]', '%', 71.9);

P = CCCCCOc1nsnc1C1=CCCCN1C [KTX-517]
Q = CC1OC2(CS1)CN1CCC2CC1 (stereo not shown) [cevimeline, Cevimeline, reference compound]
Between the entries labelled P and Q , which has a larger Emax value on record? To answer, give the label that identifies your chosen option. Q
